The origin of these recorded values is patent US20150274828A1.

study system: T1, EGFR-Fc fusion protein (recombinant EGFR extracellular region-Fc) (human, UniProt P00533 25-645)
T1 construct: extracellular domain; not shown: Fc part supplied by vector pABG1
method description: BLI ForteBio QKe, biotinylated EGFR-Fc on streptavidin sensor, antibody 20 nM; fold reduction of affinity, parent Ame55 = 1;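 note: parent antibody affinity set as 1, with values giving the fold drop in affinity of each mutant antibody relative to that parent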
observed property: Affinity change (fold)
Number only, in fold; omit the unit.

input: Return value of Affinity change for input Ame55 mutant, heavy chain 107S (antibody, V domains shown, Mutant of Ame55) VH: EVQLVQSGAEVKKPGESLKISCKGSGYSFTSYWIGWVRQMPGKGLEWMGIIYPGDSDTRYSPSFQGQVTISADKSISTAYLQWSSLKASDTAMYYCARGIIYPSNVSVWGQGTLVTVSS VL: SYELTQPPSVSVAPGQTARITCSGDALGDKYASWYQQKPGQAPVLVIYEDSKRPSGIPERFSGSNSGNTATLTISGTQAEDEADYYCSVWDGDWGMPVFGGGTKLTVLG , no commentary.
output: 0.2
